These entries and their values trace back to the supplement of paper PMC7877785.

# TEST_METHOD_NOTES: self-splicing fitness, log relative to wild type (ln ratio); higher = more splicing; Tetrahymena group I intron in knt gene, E. coli kanamycin selection, DiMSum; sequences stand for … in CUCUCU…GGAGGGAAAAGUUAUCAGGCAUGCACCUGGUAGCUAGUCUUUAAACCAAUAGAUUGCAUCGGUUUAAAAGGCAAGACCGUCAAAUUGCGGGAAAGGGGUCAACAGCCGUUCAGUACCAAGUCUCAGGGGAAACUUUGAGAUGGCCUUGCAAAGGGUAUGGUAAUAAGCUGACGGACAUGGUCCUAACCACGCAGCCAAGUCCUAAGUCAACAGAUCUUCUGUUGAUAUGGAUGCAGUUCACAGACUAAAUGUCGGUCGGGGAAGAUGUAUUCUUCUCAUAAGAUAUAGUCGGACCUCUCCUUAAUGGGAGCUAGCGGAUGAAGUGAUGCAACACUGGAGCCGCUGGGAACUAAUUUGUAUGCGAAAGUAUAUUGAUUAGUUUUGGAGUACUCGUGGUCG;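 note: selection with 25 µg/mL kanamycin versus none on LB agar overnight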
# EXPERIMENTAL_CONDITIONS: 30 °C
Response key: class 1 means self-splicing fitness (ln) >= -1; class 0 means self-splicing fitness (ln) < -1.

residue_string=UACAAGCAAUAUUACGGUAU class_assignment="class 0"
residue_string=UCAUAGCAAUAUUACGGAUU class_assignment="class 0"
residue_string=UUGCAGCAAUAUUACGUAGA class_assignment="class 0"
residue_string=CCAGAGCAAUAUUACGAACA class_assignment="class 0"
residue_string=UACCAGCAAUAUUACGAAUA class_assignment="class 1"
residue_string=UACCAGCAAUAUUACGACCU class_assignment="class 0"
residue_string=UUAGAGCAAUAUUACGAGAG class_assignment="class 1"
residue_string=GCGCAGCAAUAUUACGAUAU class_assignment="class 0"
residue_string=UCCGAGCAAUAUUACGGAGU class_assignment="class 0"
residue_string=ACAUAGCAAUAUUACGUCGG class_assignment="class 0"
residue_string=AUAGAGCAAUAUUACGAUCU class_assignment="class 1"
residue_string=CGGGAGCAAUAUUACGUCUG class_assignment="class 0"
residue_string=AUCAAGCAAUAUUACGUGGG class_assignment="class 0"
residue_string=AGACAGCAAUAUUACGAUGG class_assignment="class 0"
residue_string=AAUCAGCAAUAUUACGUCCA class_assignment="class 1"
residue_string=GCACAGCAAUAUUACGGCGA class_assignment="class 0"
residue_string=CUGAAGCAAUAUUACGUGUA class_assignment="class 0"
residue_string=CAAAAGCAAUAUUACGAUAG class_assignment="class 1"
residue_string=CCGGAGCAAUAUUACGGGAU class_assignment="class 0"
residue_string=UGGCAGCAAUAUUACGCUGA class_assignment="class 0"
residue_string=ACACAGCAAUAUUACGCGCA class_assignment="class 1"
residue_string=AUUAAGCAAUAUUACGUAAU class_assignment="class 0"
residue_string=AAGAAGCAAUAUUACGUCAG class_assignment="class 0"
residue_string=CACUAGCAAUAUUACGUAAU class_assignment="class 0"
residue_string=CGGCAGCAAUAUUACGGAUG class_assignment="class 1"
residue_string=GACAAGCAAUAUUACGGAUC class_assignment="class 0"
residue_string=UUCCAGCAAUAUUACGUACG class_assignment="class 1"
residue_string=AACUAGCAAUAUUACGUGCU class_assignment="class 0"
residue_string=ACUGAGCAAUAUUACGACAA class_assignment="class 0"
residue_string=AGUUAGCAAUAUUACGCCCC class_assignment="class 1"
residue_string=UUCAAGCAAUAUUACGCGCU class_assignment="class 0"
residue_string=ACACAGCAAUAUUACGCUCC class_assignment="class 0"
residue_string=GUACAGCAAUAUUACGUGUU class_assignment="class 0"
residue_string=UUAGAGCAAUAUUACGCACC class_assignment="class 0"
residue_string=GUCGAGCAAUAUUACGUAAG class_assignment="class 0"
residue_string=UCGCAGCAAUAUUACGGCCA class_assignment="class 1"
residue_string=AUCUAGCAAUAUUACGGCAG class_assignment="class 0"
